Tested target: Recombinant STAT6 protein (STAT6 (W123-T658)) (Homo sapiens)
Construct: Recombinant STAT6 protein (STAT6 (W123-T658))
Test summary: STAT6 Fluorescence Polarization (FP) Assay
Type: binding
Protocol conditions: STAT6 (W123-T658) 250 nM, probe 5-FAM-Ap[…]-NH2 2 nM, 45-minute incubation; read-out: STAT6 (FP assay IC50 class)
Measurement kind: IC50

# annotated cases, reported IC50 shown
[
  {
    "Compound": "O=C(N[C@H]1CCCC[C@H]2CC[C@@H](C(=O)N3CC(OCC(F)F)(c4ccccn4)C3)N2C1=O)c1cc2cc(C(F)P(=O)(O)O)ccc2s1 (stereo partly drawn) [Compound 621]",
    "IC50": "3 to 30 µM"
  },
  {
    "Compound": "N#C[C@H]1CN(C(=O)[C@@H]2CC[C@@H]3CCCC[C@H](NC(=O)c4cc5cc(C(F)(F)P(=O)(O)O)ccc5s4)C(=O)N32)C[C@@H]1c1cc[nH]c(=O)c1 (single isomer, unassigned) [Compound 875]",
    "IC50": "≤ 0.3 µM"
  }
]

Let's switch to this compound now.
Case COc1ccncc1C1CN(C(=O)[C@@H]2CC[C@@H]3CCC[C@H](NC(=O)c4cc5cc([C@@H](F)P(=O)(O)O)ccc5s4)C(=O)N32)C1 (single isomer, unassigned) [Compound 756] , Recombinant STAT6 protein (STAT6 (W123-T658)) (Homo sapiens), IC50 recorded as 3 to 30 µM

====

Tested target: pY641-STAT6 in PBMC (Homo sapiens, UniProt P42226)
Construct: Cryopreserved Peripheral Blood Mononuclear Cells (PBMC) are from AllCells; host or cells: cryopreserved PBMC
Test summary: MSD-pSTAT-PBMC Assay (pSTAT6, IL-4 stimulated)
Type: cell-based
Protocol conditions: STAT6, PBMC, compound 3 hrs, then 1 ng/mL IL-4 for 10 min; Table 115
Measurement kind: IC50

// IC50 lookup, compound = C[C@H](NP(=O)(Cc1ccc2ccc(C(=O)N[C@H]3CCCC[C@H]4CC[C@@H](C(=O)N5CC(c6ccccc6)CC56CC6)N4C3=O)cc2c1)Oc1ccccc1)C(=O)OCC(C)(C)C (stereo partly drawn) , result: > 3 µM

// IC50 lookup, compound = CCCOC(=O)[C@H](C)NP(=O)(Oc1ccccc1)C(F)c1ccc2sc(C(=O)N[C@H]3CCCC[C@H]4CC[C@@H](C(=O)N5C(=O)N(c6cccnc6)CC56CC6)N4C3=O)cc2c1 (stereo partly drawn) , result: > 3 µM

// IC50 lookup, compound = CCCOC(=O)[C@H](C)NP(=O)(Oc1ccccc1)C(F)c1ccc2sc(C(=O)N[C@H]3CCCC[C@H]4CC[C@@H](C(=O)N5C[C@H](c6cccnc6)CC56CC6)N4C3=O)cc2c1 (stereo in doubt) , result: < 0.1 µM

====

Tested target: pY641-STAT6 in PBMC (Homo sapiens, UniProt P42226)
Construct: Cryopreserved Peripheral Blood Mononuclear Cells (PBMC) are from AllCells; host or cells: cryopreserved PBMC
Sequence (P42226 1-847): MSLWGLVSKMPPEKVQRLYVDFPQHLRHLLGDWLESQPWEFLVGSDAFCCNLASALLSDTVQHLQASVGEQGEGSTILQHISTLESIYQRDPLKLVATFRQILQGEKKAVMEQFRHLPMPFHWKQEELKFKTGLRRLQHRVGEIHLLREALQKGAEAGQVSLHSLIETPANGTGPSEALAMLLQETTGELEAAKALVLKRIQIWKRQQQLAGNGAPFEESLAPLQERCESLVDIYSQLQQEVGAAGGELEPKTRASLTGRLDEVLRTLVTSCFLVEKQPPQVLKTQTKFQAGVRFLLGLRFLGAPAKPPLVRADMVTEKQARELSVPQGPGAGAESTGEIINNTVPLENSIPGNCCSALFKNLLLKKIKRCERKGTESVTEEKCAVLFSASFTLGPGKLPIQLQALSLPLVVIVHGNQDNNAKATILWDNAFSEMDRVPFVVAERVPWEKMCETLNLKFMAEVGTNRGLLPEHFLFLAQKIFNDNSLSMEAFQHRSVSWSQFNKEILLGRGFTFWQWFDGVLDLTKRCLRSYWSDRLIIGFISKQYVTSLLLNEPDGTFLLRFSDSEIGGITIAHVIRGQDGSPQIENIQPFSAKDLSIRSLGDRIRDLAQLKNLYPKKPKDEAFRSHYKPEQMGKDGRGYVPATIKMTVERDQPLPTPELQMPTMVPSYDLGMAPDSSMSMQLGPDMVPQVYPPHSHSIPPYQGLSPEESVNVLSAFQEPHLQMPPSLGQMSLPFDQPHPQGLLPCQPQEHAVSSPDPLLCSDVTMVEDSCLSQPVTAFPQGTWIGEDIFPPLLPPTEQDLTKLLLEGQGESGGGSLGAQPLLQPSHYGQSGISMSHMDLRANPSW
Test summary: MSD-pSTAT-PBMC Assay (pSTAT6, IL-4 stimulated)
Format: cell-based
Protocol conditions: STAT6, PBMC, compound 3 hrs, then 1 ng/mL IL-4 for 10 min; Table 115
Protocol: Cryopreserved Peripheral Blood Mononuclear Cells (PBMC) are from AllCells. Recombinant Human IL-4 and IL-6 are from Peprotech. […] Cyropreserved PBMCs were thawed out and allowed to recover overnight in IMDM+10% heat-inactivated FBS prior to plating 50,000 (STAT3) or 25,000 (STAT6) cells per well in 96-well U-bottom tissue culture plates. […] Assay plates were then washed and 150 μL of 1× Read Buffer-T (MSD) was added to each well prior to reading on an SQ120 MSD Plate Reader. […]
pIC50: −log10 of the molar value.
# pIC50 per record follows

# annotated cases, reported pIC50 shown
[
  {
    "Molecule": "CCCOC(=O)[C@H](C)NP(=O)(Oc1ccccc1)[C@@H](F)c1ccc2sc(C(=O)N[C@H]3CCC[C@H]4CC[C@@H](C(=O)N5C[C@H](c6ccc(C)cc6)[C@@H](C#N)C56CC6)N4C3=O)cc2c1 (single isomer, unassigned)",
    "pIC50": "> 7.00"
  },
  {
    "Molecule": "CCCOC(=O)[C@H](C)NP(=O)(Oc1ccccc1)C(F)c1ccc2sc(C(=O)N[C@H]3CCCC[C@H]4CC[C@@H](C(=O)N5C(=O)N(c6cccnc6)C(=O)C56CC6)N4C3=O)cc2c1 (stereo partly shown)",
    "pIC50": "> 7.00"
  },
  {
    "Molecule": "CCCOC(=O)[C@H](C)NP(=O)(Oc1ccccc1)[C@@H](F)c1ccc2sc(C(=O)N[C@H]3CC[C@H](N4CCC4)C[C@H]4CC[C@@H](C(=O)N5C[C@H](c6ccccc6)[C@@H](C#N)C56CC6)N4C3=O)cc2c1 (stereo partly shown)",
    "pIC50": "6.00 to 7.00"
  }
]

Let's switch to this molecule now.
// pIC50 lookup, molecule = CCCOC(=O)[C@H](C)NP(=O)(Oc1ccccc1)[C@@H](F)c1ccc2sc(C(=O)N[C@H]3CCCC[C@H]4CC[C@@H](C(=O)N5C(=O)N(c6ccc(OC)nc6)C(=O)C56CC6)N4C3=O)cc2c1 (stereo partly shown) , result: < 5.52

Hello, the source for this data is patent US20250215029A1, in case you need it.
